src = PubChem BioAssay (NCI)

# Test system: UACC-257 melanoma
# experimentalProtocol: NCI-60 one-dose screen, 48 h (100 = growth as untreated, 0 = no growth, -100 = all killed)
# testSettings: 10 µM unless noted
About 83,000 compounds went through this panel and 20% of them were active in at least one assay; those are over-represented in the sample as a whole.
Record form. Attribute: growth. Fill in for each entry.
Give bare numbers, in %.

Consider the reported growth for these compounds:
| compound | unitsSymbol | growth |
| --- | --- | --- |
| O=C1NCN(c2ccccc2)C12CCN(CCCC(c1ccc(F)cc1)c1ccc(F)cc1)CC2 | % | -15.8 |
| COc1cc2c(c(OC)c1OC)-c1ccc(NN(C(=O)c3ccccc3)C(=O)c3ccccc3)c(=O)cc1[C@@H](NC(C)=O)CC2 (tested in a mixture with another compound) | % | 58.4 |
| O=C1/C(=C/c2ccc([N+](=O)[O-])o2)Oc2ccc(Cl)cc21 | % | -2.07 |
| Nc1ccc2c3c(cccc13)-c1ccccc1-2 | % | 104 |
| c1cncc(CNc2ccccc2-c2nnc(Nc3ccc4c(c3)OCO4)o2)c1 | % | 56.2 |
| Oc1ccc(-c2nn(-c3ccccc3)cc2-c2nc3ccccc3s2)cc1 | % | 107 |
| CCN(CC)c1ccc(CN(CC(=O)c2ccc(Cl)c(Cl)c2)Cc2ccccc2)cc1 | % | 112 |
| O=C(C=C=Nc1ccccc1)C(=O)N=C=Cc1ccccc1 | % | 43.3 |

Answer for every listed entry: what is its growth? The entries follow.
1. ClC1=C(Cl)C(=C2C(Cl)=C(Cl)C(Cl)=C2Cl)C(Cl)=C1Cl
2. O=[P@@]1(c2ccccc2)O[C@H](COCc2ccccc2)[C@@H](OCc2ccccc2)[C@H](OCc2ccccc2)[C@H]1NCc1ccccc1

result:
[92.3, 22.5]

----------
# Tested on: IGROV1 ovarian
# experimentalProtocol: NCI-60 one-dose screen, 48 h
# testSettings: 10 µM unless noted
The panel holds about 83,000 compounds, 20% with a hit somewhere; the sample as a whole holds those more often. Calls of active or inactive are those of the source. The calls were made as follows: active = growth percent below 10; inactive = the rest.
Outcomes you can answer with include only these: 1 for active, 0 for inactive

| compound | discreteLabel |
| --- | --- |
| Clc1ccc([C@@H]2C[C@@H]3Cc4cc(Br)c5ccccc5c4N2O3)c(Cl)c1 | 0 |
| CCC(C)(C)C(=O)O[C@H]1C[C@@H](C)C=C2C=C[C@H](C)[C@H](CC[C@@H]3C[C@@H](O)CC(=O)O3)[C@H]21 | 0 |
| Cn1cc(-c2csc(-c3c[nH]c4ncccc34)n2)c2cc(Br)cnc21 | 0 |
| N#Cc1c(N2CCOCC2)nc2sc3cc(Cl)ccc3n2c1=N | 0 |
| Cn1c(=O)c2nc(SCc3ccccc3)n(C)c2n(C)c1=O | 0 |

query: Please indicate how the test categorized CCOC(=O)C(Cc1ccccc1)(C(=O)OCC)C(Br)C(=O)c1ccccc1 (stereo not given) .
result: 0

query: Lab log entry: CCc1[nH]nc(-c2ccc(OC)cc2)c1-c1ccccc1OCCN(CC)CC — outcome as called in the assay?
result: 0

query: Recorded call for c1csc([C@@H]2C[C@@H]3Cc4ccc5ccccc5c4N2O3)c1 ?
result: 0

query: Please let me know the test result on file for NC(=O)N/N=C/c1ccc(Br)o1 .
result: 0

query: I'd appreciate the recorded outcome for CN(C)c1ccc(/C=C(\C#N)c2nc3ccccc3c(=O)[nH]2)cc1 from this test.
result: 1
